B1: TRIM35 (parent)
chain: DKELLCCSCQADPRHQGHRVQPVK

variants of: B1; assay: protein stability index of a GFP-peptide fusion (GPS, HEK-293T) (PSI 1-6); higher = more stable; settings: c terminus: a fixed tail appended;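 further: lentivirally expressed fusions sorted by FACS into six bins by GFP to DsRed ratio, PSI derived from sequencing read proportions per bin multiplied by bin number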
protein stability index overview

[[record]]
variant_key = "C6V"
obs_value = 2.25

[[record]]
variant_key = "L5A"
obs_value = 3.65

[[record]]
variant_key = "R19N"
obs_value = 3.73

[[record]]
variant_key = "D1F"
obs_value = 2.79


Next up:
Please give the measured protein stability index for this variant: `R19G` 3.63
